Examples of molecules with documented percent growth follow.
Test system: Streptococcus suis HE06
Test: percent growth relative to DMSO control; higher = less growth inhibition
Settings: 10 µM; incubation time 18 h

>  <MOLECULE>
Cc1cc(O)nc(-n2nc(C)cc2C)n1

>  <percent growth, %>
18.2

$$$$
>  <MOLECULE>
C[C@H](c1ccc2c(c1)CCCC2)N(C)c1ncc2c(N)nc(N)nc2n1

>  <percent growth, %>
84.7

$$$$
>  <MOLECULE>
CC(=O)NCC1CN(c2ccc(-c3ccc(CO)cc3)c(F)c2)C(=O)O1 (stereo unspecified)

>  <percent growth, %>
0

$$$$
>  <MOLECULE>
Cc1ccc(NC(=O)c2cc(S(=O)(=O)NC(C)(C)C)ccc2C)nc1

>  <percent growth, %>
207

$$$$
>  <MOLECULE>
COC(=O)c1cccc2oc(-c3cccc(OC)c3NC(=O)c3cc(-c4ccccc4)on3)nc12

>  <percent growth, %>
102

$$$$
>  <MOLECULE>
CNC(=O)c1cc(S(=O)(=O)N2CCN(c3ccccn3)CC2)cs1

>  <percent growth, %>
79.7

$$$$
>  <MOLECULE>
CCCCc1ccc(NC(=O)Nc2ccc(O[C@H]3CCCC[C@@H]3N(C)c3ccccc3)c(F)c2)cc1

>  <percent growth, %>
77.8

$$$$
>  <MOLECULE>
CC(C)(C)c1cc(C(=O)Nc2cccnc2)cc(C(=O)Nc2cccnc2)c1

>  <percent growth, %>
80.6

$$$$
>  <MOLECULE>
OC[C@H]1O[C@@H](n2c3ccc(Cl)cc3c3c(-c4cc5ccccc5o4)ncnc32)C(O)[C@H]1O (stereo partly specified)

>  <percent growth, %>
93

$$$$
>  <MOLECULE>
N=C(N)Nc1ccc(-c2ccc(-c3ccc(N=C(N)N)c(Cl)c3)o2)cc1Cl

>  <percent growth, %>
27.7

$$$$
>  <MOLECULE>
Cc1nnc(NC(=O)c2cn(-c3ccccc3)nc2-c2ccccc2C)o1

>  <percent growth, %>
0.31

$$$$
>  <MOLECULE>
CC(C)N=c1cc2n(-c3ccc(Cl)cc3)c3ccccc3nc-2cc1Nc1ccc(Cl)cc1

>  <percent growth, %>
29.6

$$$$
>  <MOLECULE>
COc1ccc(CCN2CCC(NCc3cccc(N(C)C)c3)CC2)cc1

>  <percent growth, %>
98.6

$$$$
>  <MOLECULE>
O=[N+]([O-])c1cn2c(n1)OC[C@@H](OCc1ccc(OC(F)(F)F)cc1)C2

>  <percent growth, %>
110

$$$$
>  <MOLECULE>
O=C(Nc1nnc(S)s1)c1cc(Br)ccc1Cl

>  <percent growth, %>
107

$$$$
>  <MOLECULE>
Oc1c(I)cc(I)c2cccnc12

>  <percent growth, %>
0.688

$$$$
>  <MOLECULE>
CC(C(=O)N1CCCC1)N1CCN(S(=O)(=O)c2ccc(C(C)(C)C)cc2)CC1 (stereo unspecified)

>  <percent growth, %>
84.8

$$$$
>  <MOLECULE>
Cc1cccc(NC(=O)c2cc(S(=O)(=O)N(C)c3ccc(F)cc3)ccc2Cl)n1

>  <percent growth, %>
111

$$$$
>  <MOLECULE>
CN(C)c1cc(NC(=O)Nc2ccccc2)c2ccccc2n1

>  <percent growth, %>
105

$$$$
>  <MOLECULE>
Cc1cc2ccccc2n1CC(=O)N1CC(C(=O)N2CCCCC2)Oc2ccccc21 (stereo unspecified)

>  <percent growth, %>
71.6

$$$$
>  <MOLECULE>
Cc1noc(C)c1C(=O)N1CCCC(c2[nH]c3c(C)cccc3c2-c2ccncc2)C1 (stereo unspecified)

>  <percent growth, %>
90.2

$$$$
>  <MOLECULE>
O=C(CCC1CCCCC1)Nc1cccc(-c2nnc(-c3ccco3)o2)c1

>  <percent growth, %>
93.8

$$$$
>  <MOLECULE>
Brc1c(-c2ccc3c(c2)OCO3)nc2ncccn12

>  <percent growth, %>
95.7

$$$$
>  <MOLECULE>
Cc1cc(NC(=O)c2ccc(S(=O)(=O)N(Cc3ccccc3)C(C)C)cc2)no1

>  <percent growth, %>
105

$$$$
>  <MOLECULE>
CN1CCN(c2cc(-c3ccc(F)cc3)nc(-c3ccncc3)n2)CC1

>  <percent growth, %>
83.6

$$$$
>  <MOLECULE>
CS(=O)(=O)N1CCC(Cn2nc(Cc3cccc4ccccc34)c3c(N)ncnc32)CC1

>  <percent growth, %>
91.3

$$$$
>  <MOLECULE>
Cc1cc(OCC(=O)NCc2ccccc2)c2cc(Br)ccc2n1

>  <percent growth, %>
94.8

$$$$
>  <MOLECULE>
CC(=O)Nc1ccc(NC(=O)c2cc(-c3cc(Cl)ccc3O)[nH]n2)cc1

>  <percent growth, %>
96.5

$$$$
>  <MOLECULE>
O=C(C1CCN(c2nnc(-n3cccc3)s2)CC1)N1CCC(Cc2ccccc2)CC1

>  <percent growth, %>
120

$$$$
>  <MOLECULE>
FC(F)(F)c1nnc2ccc(Cl)nn12

>  <percent growth, %>
74.8

$$$$
>  <MOLECULE>
CC[C@@H]([C@H](C)O)n1ncn(-c2ccc(N3CCN(c4ccc(OC[C@@H]5CO[C@@](Cn6cncn6)(c6ccc(F)cc6F)C5)cc4)CC3)cc2)c1=O

>  <percent growth, %>
76.2

$$$$
